Parameter pIC50: see the listing below.
- experimental-target: NAMPT (human, recombinant, C-terminally His-tagged) (Homo sapiens, UniProt P43490)
- Sequence (P43490 whole entry): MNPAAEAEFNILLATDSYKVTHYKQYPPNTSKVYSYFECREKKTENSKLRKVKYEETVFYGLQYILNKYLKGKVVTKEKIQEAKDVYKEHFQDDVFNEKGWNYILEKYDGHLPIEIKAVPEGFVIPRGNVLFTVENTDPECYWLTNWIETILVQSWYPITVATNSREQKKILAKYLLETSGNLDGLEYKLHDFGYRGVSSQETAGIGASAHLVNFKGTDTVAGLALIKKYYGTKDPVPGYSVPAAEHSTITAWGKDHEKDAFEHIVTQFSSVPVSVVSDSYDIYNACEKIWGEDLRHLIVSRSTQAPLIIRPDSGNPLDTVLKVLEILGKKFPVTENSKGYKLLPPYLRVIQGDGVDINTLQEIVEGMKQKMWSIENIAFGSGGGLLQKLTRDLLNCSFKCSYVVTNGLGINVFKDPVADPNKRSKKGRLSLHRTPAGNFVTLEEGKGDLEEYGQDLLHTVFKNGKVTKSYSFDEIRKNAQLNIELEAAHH
- assay: Time-Resolved Fluorescence Resonance Energy Transfer (TR-FRET) Binding Assay of NAMPT
- experimental-setup: without substrates; 6.8 nM NAMPT, 200 nM probe, 3 hours equilibration
Remember, pIC50 is on a log scale: it is -log10 of the molar concentration.

// worked examples, pIC50 included
CC(C)Cn1cc(-c2ncc(C(=O)NCc3ccn4ccnc4c3)s2)cn1 = 5.97
O=C(NCc1ccn2ccnc2c1)Nc1ccc(C2CN(C(=O)[C@H]3CCCO3)C2)cc1 = 6.03

The measured pIC50 that O=C(NCc1ccn2ccnc2c1)c1ccc(C2CCN(C(=O)[C@H]3CCOC3)CC2)cc1 showed for NAMPT (human, recombinant, C-terminally His-tagged) (Homo sapiens, UniProt P43490) is 6.51

The measured pIC50 that O=C(NCc1ccc2nccn2c1)c1cnc(N2CC(c3ccccc3)OC2=O)s1 (stereo not shown) showed for NAMPT (human, recombinant, C-terminally His-tagged) (Homo sapiens, UniProt P43490) is 6.59

The measured pIC50 that Cc1ccc(C(=O)N2CC(c3ccc(C(=O)NCc4ccn5ccnc5c4)cc3)C2)cc1 showed for NAMPT (human, recombinant, C-terminally His-tagged) (Homo sapiens, UniProt P43490) is 6.82

The measured pIC50 that CS(=O)(=O)N1CCC(c2ccc(C(=O)NCc3ccn4ccnc4c3)s2)CC1 showed for NAMPT (human, recombinant, C-terminally His-tagged) (Homo sapiens, UniProt P43490) is 7.29

The measured pIC50 that CC(C)CC1CCCN1C(=O)c1ccc(C(=O)NCc2ccn3ccnc3c2)s1 (stereo not shown) showed for NAMPT (human, recombinant, C-terminally His-tagged) (Homo sapiens, UniProt P43490) is 6.93

The measured pIC50 that O=C(NCc1ccn2ccnc2c1)Nc1ccc(OC2CCN(C(=O)[C@H]3CCCO3)CC2)cc1 showed for NAMPT (human, recombinant, C-terminally His-tagged) (Homo sapiens, UniProt P43490) is 6.76

The measured pIC50 that O=C(NCc1ccn2ccnc2c1)Nc1ccc(O[C@@H]2CCN(C(=O)c3cc(F)cc(F)c3)C2)cc1 showed for NAMPT (human, recombinant, C-terminally His-tagged) (Homo sapiens, UniProt P43490) is 6.79

The measured pIC50 that O=C(NCc1ccn2ccnc2c1)c1ccc(C2CCN(C(=O)[C@@H]3CCCO3)C2)cc1 (stereo partly shown) showed for NAMPT (human, recombinant, C-terminally His-tagged) (Homo sapiens, UniProt P43490) is 5.78

The measured pIC50 that O=C(NCCCCC1CCN(C(=O)C2CCOCC2)CC1)Nc1ccc2nccn2c1 showed for NAMPT (human, recombinant, C-terminally His-tagged) (Homo sapiens, UniProt P43490) is 6.17

The measured pIC50 that O=C(NCc1ccn2ccnc2c1)c1ccc(C2CCN(C(=O)C3CCOC3)CC2)s1 (stereo not shown) showed for NAMPT (human, recombinant, C-terminally His-tagged) (Homo sapiens, UniProt P43490) is 7.20

The measured pIC50 that CC(C)C(=O)N1CC(O)(c2ccc(C(=O)NCc3ccn4ccnc4c3)s2)C1 showed for NAMPT (human, recombinant, C-terminally His-tagged) (Homo sapiens, UniProt P43490) is 7.09

The measured pIC50 that O=C(NCCCCC1CCN(C(=O)CC2CCOC2)CC1)Nc1ccc2nccn2c1 (stereo not shown) showed for NAMPT (human, recombinant, C-terminally His-tagged) (Homo sapiens, UniProt P43490) is 6.22

The measured pIC50 that CC(C)CCn1nccc1-c1ccc(C(=O)NCc2ccn3ccnc3c2)o1 showed for NAMPT (human, recombinant, C-terminally His-tagged) (Homo sapiens, UniProt P43490) is 6.18

The measured pIC50 that COC[C@H]1CCCN1C(=O)c1ccc(C(=O)NCc2ccn3ccnc3c2)s1 showed for NAMPT (human, recombinant, C-terminally His-tagged) (Homo sapiens, UniProt P43490) is 6.72

The measured pIC50 that O=C(NCc1ccn2ccnc2c1)c1ccc(C2CN(C(=O)c3cccnc3)C2)cc1 showed for NAMPT (human, recombinant, C-terminally His-tagged) (Homo sapiens, UniProt P43490) is 6.19

The measured pIC50 that O=C(NCc1ccn2ccnc2c1)c1ccc(C2CCN(C(=O)C3CCS(=O)(=O)CC3)CC2)cc1 showed for NAMPT (human, recombinant, C-terminally His-tagged) (Homo sapiens, UniProt P43490) is 6.04

The measured pIC50 that O=C(NCc1ccn2ccnc2c1)c1ccc(C2CN(C(=O)c3ccco3)C2)cc1 showed for NAMPT (human, recombinant, C-terminally His-tagged) (Homo sapiens, UniProt P43490) is 6.67

The measured pIC50 that O=C(NCc1ccn2ccnc2c1)c1ccc(-c2cnn(Cc3ccccc3)c2)o1 showed for NAMPT (human, recombinant, C-terminally His-tagged) (Homo sapiens, UniProt P43490) is 7.17

---

Here's what we have: pIC50 numbers for NAMPT (Homo sapiens, UniProt P43490).
Remember, pIC50 is on a log scale: it is -log10 of the molar concentration.

CC(C)(C)OC(=O)N1CC(Oc2ccc(C(=O)NCc3ccn4ccnc4c3)cc2)C1 [Example 474] = 9.44
CC(C)(C)OC(=O)N1CCC(O)(c2ccc(C(=O)NCc3ccn4ccnc4c3)s2)CC1 [Example 403] = 9.07
CC(C)C(=O)N1CCC(c2ccc(C(=O)NCc3ccn4ccnc4c3)o2)CC1 [Example 736] = 9.14
O=C(NCc1ccn2ccnc2c1)Nc1ccc(OC2CN(C(=O)[C@@H]3CCCO3)C2)cc1 [Example 432] = 9.48
CCCC(=O)Nc1ccc(NC(=O)Nc2ccc3nccn3c2)cc1 [Example 44] = 9.30
CC1(C(=O)N2CCC(c3ccc(C(=O)NCc4ccn5ccnc5c4)s3)C2)COC1 (stereo not shown) [Example 767] = 9.19

The measured pIC50 that O=C(NCc1cn2ccnc2cn1)c1ccc(C2CCN(C(=O)c3cc(F)ccc3F)CC2)cc1 [Example 813] showed for NAMPT (Homo sapiens, UniProt P43490) is 8.82

The measured pIC50 that CC(C)CC(=O)N1CCC(n2nccc2C(=O)NCc2ccn3ccnc3c2)CC1 [Example 409] showed for NAMPT (Homo sapiens, UniProt P43490) is 6.32

The measured pIC50 that O=C(NCc1ccc2nccn2c1)c1ccc(OC2CCN(C(=O)C3CC3)CC2)cc1 [Example 161] showed for NAMPT (Homo sapiens, UniProt P43490) is 8.54

The measured pIC50 that O=C(NCc1ccn2ccnc2c1)c1ccc(C2CCN(C(=O)c3cccc(C(F)(F)F)c3)CC2)cc1 [Example 702] showed for NAMPT (Homo sapiens, UniProt P43490) is 8.89

The measured pIC50 that COCCC(=O)N(CC1CCCO1)c1ncc(C(=O)NCc2ccn3ccnc3c2)s1 (stereo not shown) [Example 121] showed for NAMPT (Homo sapiens, UniProt P43490) is 9.63

The measured pIC50 that CC(C)C(=O)N1CCC(c2ccc(NC(=O)Nc3ccc4nccn4c3)cc2)CC1 [Example 106] showed for NAMPT (Homo sapiens, UniProt P43490) is 9.70

The measured pIC50 that O=C(CC1CCOC1)Nc1ccc(NC(=O)Nc2ccc3nccn3c2)cc1 (stereo not shown) [Example 26] showed for NAMPT (Homo sapiens, UniProt P43490) is 8.96

The measured pIC50 that COCCC(=O)N(C[C@H]1CCCO1)c1ncc(C(=O)NCc2ccc3nccn3c2)s1 [Example 145] showed for NAMPT (Homo sapiens, UniProt P43490) is 8.97

The measured pIC50 that O=C(NCc1ccn2ccnc2c1)c1ccc(C2(O)CCOCC2)s1 [Example 399] showed for NAMPT (Homo sapiens, UniProt P43490) is 8.81

The measured pIC50 that CC(C)(C)OC(=O)Nc1ccc(C(=O)NCc2ccn3ccnc3c2)cc1F [Example 292] showed for NAMPT (Homo sapiens, UniProt P43490) is 8.94

The measured pIC50 that O=C(NCc1ccc2nccn2c1)c1ccc(C2=CCN(C(=O)C3CCOCC3)CC2)cc1 [Example 101] showed for NAMPT (Homo sapiens, UniProt P43490) is 8.76

The measured pIC50 that O=C(NCc1ccn2ccnc2c1)c1ccc(C2CCN(S(=O)(=O)C3CC3)CC2)cc1 [Example 684] showed for NAMPT (Homo sapiens, UniProt P43490) is 8.87

The measured pIC50 that CC1(C(=O)N2CC(c3ccc(C(=O)NCc4ccn5ccnc5c4)cc3)C2)CCCCC1 [Example 665] showed for NAMPT (Homo sapiens, UniProt P43490) is 9.45

The measured pIC50 that CC1(Cn2cc(-c3ccc(C(=O)NCc4ccn5ccnc5c4)s3)cn2)CCOCC1 [Example 576] showed for NAMPT (Homo sapiens, UniProt P43490) is 9.11

The measured pIC50 that O=C(NCc1ccn2ccnc2c1)c1ccc(C2CCN(C(=O)c3cc(F)ccc3F)C2)s1 (stereo not shown) [Example 785] showed for NAMPT (Homo sapiens, UniProt P43490) is 9.20

The measured pIC50 that CC(C)OCC(=O)N1CCC(Oc2ccc(C(=O)NCc3ccn4ccnc4c3)cc2)CC1 [Example 416] showed for NAMPT (Homo sapiens, UniProt P43490) is 9.50

The measured pIC50 that O=C(NCc1ccn2ccnc2c1)c1ccc(C2CCN(C(=O)c3cccc(Cl)c3)C2)cc1 (stereo not shown) [Example 597] showed for NAMPT (Homo sapiens, UniProt P43490) is 9.06
